These entries and their values trace back to PubChem BioAssay AID1845195.

Recorded IC50, one value per entry.
Tested on: 156681-154-R-J1 tumor spheroid viability
test.method.notes: Anticancer human tumor 156681-154-R-J1 patient-derived melanoma cell line growth inhibition
particulars: curve of first compound; second compound 0.003 µM; spheroids with HUVEC and MSC
Experimental: Multicellular complex tumor spheroid response to DNA repair inhibitors in combination with DNA-damaging drugs This study explores the anticancer activities of DNA-damaging drugs and inhibitors of DNA damage repair, both as single agents and in combinations. […] Twenty-six patient-derived or established malignant cell lines were evaluated representing sarcoma, melanoma, small cell lung cancer (SCLC), non-small cell lung cancer (NSCLC), as well as bladder, ovarian and pancreatic cancers. […]

For orientation, consider the following solved cases.
[2H]c1nc(C)nc([2H])c1-c1cc(NC[C@@H](C)c2cccc3c(C(=O)NC)ccnc23)ncn1 + COc1cc2c(cc1O)CCNC21CSC2c3c(OC(C)=O)c(C)c4c(c3C(COC1=O)N1C(O)C3Cc5cc(C)c(OC)c(O)c5C(C21)N3C)OCO4 : < 31.6 nM
COc1ccc([C@@H](O)c2cc(-c3ncnc4cc(N5CCOCC5)ccc34)c(F)cc2Cl)nn1 + COc1cc2c(cc1O)CCNC21CSC2c3c(OC(C)=O)c(C)c4c(c3C(COC1=O)N1C(O)C3Cc5cc(C)c(OC)c(O)c5C(C21)N3C)OCO4 : < 31.6 nM
CC1COCCN1c1cc(-c2ccnn2C)c2ccnc(-c3ccn[nH]3)c2n1 (centres undefined) + COc1cc2c(cc1O)CCNC21CSC2c3c(OC(C)=O)c(C)c4c(c3C(COC1=O)N1C(O)C3Cc5cc(C)c(OC)c(O)c5C(C21)N3C)OCO4 : < 31.6 nM
CNCc1ccc(-c2cc(-c3nc(-c4ccc(S(=O)(=O)C(C)C)cc4)cnc3N)on2)cc1 + CC[C@@]1(O)C(=O)OCc2c1cc1n(c2=O)Cc2cc3c(CN(C)C)c(O)ccc3nc2-1 : 733 nM

Return reported IC50. Input compound: Cc1cc(C)c(CNC(=O)c2cc(-c3ccc(CN4CCOCC4)cc3)cc3c2cnn3C2CCCC2)c(=O)[nH]1 + CC[C@@]1(O)C(=O)OCc2c1cc1n(c2=O)Cc2cc3c(CN(C)C)c(O)ccc3nc2-1
> 10000 nM

Return reported IC50. Input compound: COc1cc(C)[nH]c(=O)c1CN1CCc2c(Cl)cc(C(OC)C3COC3)c(Cl)c2C1=O (centres undefined) + CC[C@@]1(O)C(=O)OCc2c1cc1n(c2=O)Cc2cc3c(CN(C)C)c(O)ccc3nc2-1
> 10000 nM

Return reported IC50. Input compound: CC(C)n1c(=O)n(C)c2cnc3cc(F)c(-c4ccc(OCCCN5CCCCC5)nc4)cc3c21 + CC[C@@]1(O)C(=O)OCc2c1cc1n(c2=O)Cc2cc3c(CN(C)C)c(O)ccc3nc2-1
> 10000 nM

Return reported IC50. Input compound: Cc1sc2c(c1C)C(c1ccc(Cl)cc1)=NC(CC(=O)Nc1ccc(O)cc1)c1nnc(C)n1-2 (centres undefined) + COc1cc2c(cc1O)CCNC21CSC2c3c(OC(C)=O)c(C)c4c(c3C(COC1=O)N1C(O)C3Cc5cc(C)c(OC)c(O)c5C(C21)N3C)OCO4
< 9.49 nM

Return reported IC50. Input compound: Cn1ncnc1[C@H]1c2n[nH]c(=O)c3cc(F)cc(c23)N[C@@H]1c1ccc(F)cc1 + CC[C@@]1(O)C(=O)OCc2c1cc1n(c2=O)Cc2cc3c(CN(C)C)c(O)ccc3nc2-1
871 nM

---

Test system: 156681-154-R-J1 tumor spheroid viability
test.method.notes: Anticancer human tumor 156681-154-R-J1 cell line growth inhibition;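 note: spheroids exposed to compounds for 7 days before readout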;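 for viability, T/C: percent of vehicle control viability where 100% = DMSO-treated spheroids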
particulars: second compound 3.16 µM; first compound 0.949 µM; stronger effect = lower value; spheroids with HUVEC and MSC
recorded.endpoint: viability, T/C (%)
Just the number please, in %, no unit attached.

For orientation, consider the following solved cases.
Cn1ncnc1[C@H]1c2n[nH]c(=O)c3cc(F)cc(c23)N[C@@H]1c1ccc(F)cc1 + Cn1nnc2c(C(N)=O)ncn2c1=O : 40
CNCc1ccc(-c2cc(-c3nc(-c4ccc(S(=O)(=O)C(C)C)cc4)cnc3N)on2)cc1 + Cn1nnc2c(C(N)=O)ncn2c1=O : 50.7
O=C(c1cc(Cc2n[nH]c(=O)c3ccccc23)ccc1F)N1CCN(C(=O)C2CC2)CC1 + Cn1nnc2c(C(N)=O)ncn2c1=O : 78.3

Here is another compound to look at.
Report measured viability, T/C on 156681-154-R-J1 tumor spheroid viability; entry: Cc1sc2c(c1C)C(c1ccc(Cl)cc1)=NC(CC(=O)Nc1ccc(O)cc1)c1nnc(C)n1-2 (centres undefined) + Cn1nnc2c(C(N)=O)ncn2c1=O
52.4

---

System: 156681-154-R-J1 tumor spheroid viability
test.method.notes: Anticancer human tumor 156681-154-R-J1 cell line growth inhibition;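 note: spheroids exposed to compounds for 7 days before readout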;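 for viability, T/C: percent of vehicle control viability where 100% = DMSO-treated spheroids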
particulars: second compound 0.0003 µM; first compound 0.0316 µM; stronger effect = lower value; spheroids with HUVEC and MSC
Recorded viability, T/C, one value per entry.
Just the number please, in %, no unit attached.

For orientation, consider the following solved cases.
Cc1cc(C)c(CNC(=O)c2cc(-c3ccc(CN4CCOCC4)cc3)cc3c2cnn3C2CCCC2)c(=O)[nH]1 + COc1cc2c(cc1O)CCNC21CSC2c3c(OC(C)=O)c(C)c4c(c3C(COC1=O)N1C(O)C3Cc5cc(C)c(OC)c(O)c5C(C21)N3C)OCO4 : 76.2
COc1ccc([C@@H](O)c2cc(-c3ncnc4cc(N5CCOCC5)ccc34)c(F)cc2Cl)nn1 + COc1cc2c(cc1O)CCNC21CSC2c3c(OC(C)=O)c(C)c4c(c3C(COC1=O)N1C(O)C3Cc5cc(C)c(OC)c(O)c5C(C21)N3C)OCO4 : 83.5
CC(C)n1c(=O)n(C)c2cnc3cc(F)c(-c4ccc(OCCCN5CCCCC5)nc4)cc3c21 + COc1cc2c(cc1O)CCNC21CSC2c3c(OC(C)=O)c(C)c4c(c3C(COC1=O)N1C(O)C3Cc5cc(C)c(OC)c(O)c5C(C21)N3C)OCO4 : 66.9
COc1cc(C)[nH]c(=O)c1CN1CCc2c(Cl)cc(C(OC)C3COC3)c(Cl)c2C1=O (stereo unspecified) + COc1cc2c(cc1O)CCNC21CSC2c3c(OC(C)=O)c(C)c4c(c3C(COC1=O)N1C(O)C3Cc5cc(C)c(OC)c(O)c5C(C21)N3C)OCO4 : 77.9
[2H]c1nc(C)nc([2H])c1-c1cc(NC[C@@H](C)c2cccc3c(C(=O)NC)ccnc23)ncn1 + COc1cc2c(cc1O)CCNC21CSC2c3c(OC(C)=O)c(C)c4c(c3C(COC1=O)N1C(O)C3Cc5cc(C)c(OC)c(O)c5C(C21)N3C)OCO4 : 79.7

Return reported viability, T/C. Input molecule: CC1COCCN1c1cc(-c2ccnn2C)c2ccnc(-c3ccn[nH]3)c2n1 (stereo unspecified) + COc1cc2c(cc1O)CCNC21CSC2c3c(OC(C)=O)c(C)c4c(c3C(COC1=O)N1C(O)C3Cc5cc(C)c(OC)c(O)c5C(C21)N3C)OCO4
49.5

---

Test system: 156681-154-R-J1 tumor spheroid viability
test.method.notes: Anticancer human tumor 156681-154-R-J1 cell line growth inhibition;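 note: spheroids exposed to compounds for 7 days before readout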;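 for viability, T/C: percent of vehicle control viability where 100% = DMSO-treated spheroids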
particulars: second compound 3.16 µM; first compound 1 µM; stronger effect = lower value; spheroids with HUVEC and MSC
recorded.endpoint: viability, T/C (%)
Just the number please, in %, no unit attached.

For orientation, consider the following solved cases.
CC(C)n1c(=O)n(C)c2cnc3cc(F)c(-c4ccc(OCCCN5CCCCC5)nc4)cc3c21 + Cn1nnc2c(C(N)=O)ncn2c1=O : 123
[2H]c1nc(C)nc([2H])c1-c1cc(NC[C@@H](C)c2cccc3c(C(=O)NC)ccnc23)ncn1 + Cn1nnc2c(C(N)=O)ncn2c1=O : 112
COc1cc(C)[nH]c(=O)c1CN1CCc2c(Cl)cc(C(OC)C3COC3)c(Cl)c2C1=O (stereo unspecified) + Cn1nnc2c(C(N)=O)ncn2c1=O : 74.9
COc1ccc([C@@H](O)c2cc(-c3ncnc4cc(N5CCOCC5)ccc34)c(F)cc2Cl)nn1 + Cn1nnc2c(C(N)=O)ncn2c1=O : 79.1
CC1COCCN1c1cc(-c2ccnn2C)c2ccnc(-c3ccn[nH]3)c2n1 (stereo unspecified) + Cn1nnc2c(C(N)=O)ncn2c1=O : 21.3

Return reported viability, T/C. Input molecule: Cc1cc(C)c(CNC(=O)c2cc(-c3ccc(CN4CCOCC4)cc3)cc3c2cnn3C2CCCC2)c(=O)[nH]1 + Cn1nnc2c(C(N)=O)ncn2c1=O
87.2

---

Test system: 156681-154-R-J1 tumor spheroid viability
test.method.notes: Anticancer human tumor 156681-154-R-J1 cell line growth inhibition;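 note: spheroids exposed to compounds for 7 days before readout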;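 for viability, T/C: percent of vehicle control viability where 100% = DMSO-treated spheroids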
particulars: second compound 10 µM; first compound 0.316 µM; stronger effect = lower value; spheroids with HUVEC and MSC
Recorded viability, T/C, one value per entry.
Just the number please, in %, no unit attached.

For orientation, consider the following solved cases.
Cc1cc(C)c(CNC(=O)c2cc(-c3ccc(CN4CCOCC4)cc3)cc3c2cnn3C2CCCC2)c(=O)[nH]1 + Cn1nnc2c(C(N)=O)ncn2c1=O : 72.4
COc1ccc([C@@H](O)c2cc(-c3ncnc4cc(N5CCOCC5)ccc34)c(F)cc2Cl)nn1 + Cn1nnc2c(C(N)=O)ncn2c1=O : 73.8

Here is another compound to look at.
Report measured viability, T/C on 156681-154-R-J1 tumor spheroid viability; entry: [2H]c1nc(C)nc([2H])c1-c1cc(NC[C@@H](C)c2cccc3c(C(=O)NC)ccnc23)ncn1 + Cn1nnc2c(C(N)=O)ncn2c1=O
59.7
